Attribution: patent US20120135923A1

# system_name: T1, hMC3-R (human, UniProt P41968 1-323)
# T1 construct: whole, on cells; Assayed as membranes of CHO-K1 cells expressing the receptor; also called hMC-R receptor subtype 3; melacortin-3 (MC3-R)
# assay: competition with [125I]-NDP-α-MSH, CHO-K1 membranes
Bridge positions count the residues as written; N and C are the ends. Square brackets hold non-standard residues; d marks the D form. Ends that are not written are not given here. 2Nal = N[C@@H](Cc1ccc2ccccc2c1)C(=O)O; hCha = N[C@@H](CCC1CCCCC1)C(=O)O; dTle = CC(C)(C)[C@@H](N)C(=O)O; Pen = CC(C)(S)[C@H](N)C(=O)O; Nle = CCCC[C@H](N)C(=O)O; Ava = NCCCCC(=O)O; GABA = NCCCC(=O)O
Note to self: Ki under 90 nM means TRUE, ties and anything higher get FALSE.

>>> qualitative_label("Ac-[Nle]C[dTle]H[dF]RWC-NH2 (disulfide 2-8) [Ac-Nle-c(Cys-D-Tle-His-D-Phe-Arg-Trp-Cys)-NH2]")
"TRUE"
>>> qualitative_label("Ac-[hCha]DH[dF]RW[GABA]K-NH2 (lactam 2-8; SMILES CC(=O)N[C@@H](CCC1CCCCC1)C(=O)N[C@H]1CC(=O)NCCCC[C@@H](C(N)=O)NC(=O)CCCNC(=O)[C@H](Cc2c[nH]c3ccccc23)NC(=O)[C@H](CCCNC(=N)N)NC(=O)[C@@H](Cc2ccccc2)NC(=O)[C@H](Cc2c[nH]cn2)NC1=O) [Ac-hCha-c(Asp-His-D-Phe-Arg-Trp-Gaba-Lys)-NH2]")
"FALSE"
>>> qualitative_label("Ac-C[dA]H[dF]R[2Nal]AC-NH2 (disulfide 1-8; SMILES CC(=O)N[C@H]1CSSC[C@@H](C(N)=O)NC(=O)[C@H](C)NC(=O)[C@H](Cc2ccc3ccccc3c2)NC(=O)[C@H](CCCNC(=N)N)NC(=O)[C@@H](Cc2ccccc2)NC(=O)[C@H](Cc2c[nH]cn2)NC(=O)[C@@H](C)NC1=O) [Ac-c(Cys-D-Ala-His-D-Phe-Arg-2-Nal-Ala-Cys)-NH2]")
"FALSE"

Query block: Please state whether Ki is below 90 nM for Ac-[Nle]DH[dF]RW[GABA]K-NH2 (lactam 2-8) [Ac-Nle-c(Asp-His-D-Phe-Arg-Trp-Gaba-Lys)-NH2]
Result block: TRUE

Query block: Please state whether Ki is below 90 nM for Ac-[Nle]CH[dF]RW[GABA][Pen]-NH2 (disulfide 2-8) [Ac-Nle-c(Cys-His-D-Phe-Arg-Trp-Gaba-Pen)-NH2]
Result block: TRUE

Query block: Please state whether Ki is below 90 nM for [Nle]CH[dF]RW[Ava]C-NH2 (disulfide 2-8; N-terminus assumed; SMILES CCCC[C@H](N)C(=O)N[C@H]1CSSC[C@@H](C(N)=O)NC(=O)CCCCNC(=O)[C@H](Cc2c[nH]c3ccccc23)NC(=O)[C@H](CCCNC(=N)N)NC(=O)[C@@H](Cc2ccccc2)NC(=O)[C@H](Cc2c[nH]cn2)NC1=O) [Nle-c(Cys-His-D-Phe-Arg-Trp-Apn-Cys)-NH2]
Result block: TRUE
